Data provenance is paper PMC12388523.

Can you tell me mean percentage of proliferation ± SE for the items I'm about to list?
Test system: MOLM-13 cells
experiment: Proliferation, [3H]-thymidine uptake, MOLM-13
Assay type: cell-based
experimentalConditions: MOLM-13, 100 µM, 72 h, relative to control
Give just the number in %; leave the unit off.

Quick note, mean percentage of proliferation ± SE for COc1cc(O)c2c(=O)c(O)c(-c3cc(O)c(OC)c(OC)c3)oc2c1 landed at 3.8

Quick note, mean percentage of proliferation ± SE for COc1ccc(-c2cc(=O)c3c(O)cc(O)cc3o2)cc1O landed at 1.1

Quick note, mean percentage of proliferation ± SE for COc1cc(O)c2c(=O)c(OC)c(-c3ccc(O)c(O)c3)oc2c1 landed at 8.8

Quick note, mean percentage of proliferation ± SE for COc1cc(O)c2c(=O)c(OC)c(-c3ccc(OC)c(OC)c3)oc2c1 landed at 57.8

---

Tested on: HL-60, MOLM-13, AMO-1, and KMS-12 PE cancer cells
experiment: Proliferation, range over the four tested cancer cell lines
Format: cell-based
experimentalConditions: HL-60, MOLM-13, AMO-1, KMS-12 PE; read-out: IC50 inhibition of proliferation, range over cell lines
endpoint: IC50

Quick note, IC50 for C=C(C)C(=O)O[C@H]1C[C@@]2(C)OC(=CC2=O)/C(CO)=C\[C@H]2OC(=O)C(=C)[C@H]12 [Compound 5, goyazensolide] landed at 1 to 1.6 µM

---

Tested on: AMO-1 cells
experiment: Proliferation, [3H]-thymidine uptake, AMO-1
Type: cell-based
experimentalConditions: AMO-1, 72 h, 95% confidence interval in brackets; read-out: IC50 inhibition of proliferation
endpoint: IC50 (µM)
Give just the number in µM; leave the unit off.

Quick note, IC50 for C=C1C(=O)O[C@@H]2/C=C(/C)C3=CC(=O)[C@@](C)(C[C@H](OC(=O)/C(C)=C\C)[C@@H]12)O3 [Compound 7, lychnopholide] landed at 2.2

---

Tested on: KMS-12-PE cells
experiment: Proliferation, [3H]-thymidine uptake, KMS-12-PE
Format: cell-based
experimentalConditions: KMS-12 PE, 100 µM, 72 h, relative to control
Can you tell me mean percentage of proliferation ± SE for the items I'm about to list?
Report as: number unit

Quick note, mean percentage of proliferation ± SE for COc1cc(O)c2c(=O)c(OC)c(-c3ccc(O)c(O)c3)oc2c1 landed at 29.7 ± 6.0 %

Quick note, mean percentage of proliferation ± SE for COc1cc(O)c2c(=O)c(O)c(-c3cc(O)c(OC)c(OC)c3)oc2c1 landed at 2.6 ± 0.4 %

Quick note, mean percentage of proliferation ± SE for COc1cc(O)c2c(=O)c(OC)c(-c3ccc(OC)c(OC)c3)oc2c1 landed at 73.0 ± 1.9 %

Quick note, mean percentage of proliferation ± SE for COc1ccc(-c2cc(=O)c3c(O)cc(O)cc3o2)cc1O landed at 16.4 ± 2.4 %

---

System: HL-60 cells
experiment: Proliferation, [3H]-thymidine uptake, HL-60
Type: cell-based
experimentalConditions: HL-60, 100 µM, 72 h, relative to control
endpoint: mean percentage of proliferation ± SE (%)
Give just the number in %; leave the unit off.

Quick note, mean percentage of proliferation ± SE for COc1ccc(-c2cc(=O)c3c(O)cc(O)cc3o2)cc1O landed at 19.7

Quick note, mean percentage of proliferation ± SE for COc1cc(O)c2c(=O)c(O)c(-c3cc(O)c(OC)c(OC)c3)oc2c1 landed at 2.5

Quick note, mean percentage of proliferation ± SE for COc1cc(O)c2c(=O)c(OC)c(-c3ccc(O)c(O)c3)oc2c1 landed at 18.5

Quick note, mean percentage of proliferation ± SE for COc1cc(O)c2c(=O)c(OC)c(-c3ccc(OC)c(OC)c3)oc2c1 landed at 65.6

---

Test system: MOLM-13 cells
experiment: Proliferation, [3H]-thymidine uptake, MOLM-13
Assay type: cell-based
experimentalConditions: MOLM-13, 50 µM, 72 h, relative to control
endpoint: mean percentage of proliferation ± SE

Reported mean percentage of proliferation ± SE (MOLM-13 cells) for entry COc1cc(O)c2c(=O)c(OC)c(-c3ccc(OC)c(OC)c3)oc2c1 [Compound 1, retusin] is 76.9 ± 4.7 %

Reported mean percentage of proliferation ± SE (MOLM-13 cells) for entry COc1cc(O)c2c(=O)c(O)c(-c3cc(O)c(OC)c(OC)c3)oc2c1 [Compound 2, 7,3′,4′-trimetoxymyricetin] is 35.4 ± 4.2 %

Reported mean percentage of proliferation ± SE (MOLM-13 cells) for entry COc1cc(O)c2c(=O)c(OC)c(-c3ccc(O)c(O)c3)oc2c1 [Compound 4, 3,7-di-O-methylquercetin] is 13.1 ± 2.7 %

Reported mean percentage of proliferation ± SE (MOLM-13 cells) for entry COc1ccc(-c2cc(=O)c3c(O)cc(O)cc3o2)cc1O [Compound 3, diosmetin] is 11.7 ± 1.6 %

---

Can you tell me pIC50 for the items I'm about to list?
Tested on: KMS-12-PE cells
experiment: Proliferation, [3H]-thymidine uptake, KMS-12-PE
Format: cell-based
experimentalConditions: Homo sapiens, KMS-12-PE, 72 h, KMS-12-PE, 72 h, 95% confidence interval in brackets; read-out: IC50 inhibition of proliferation
Worth noting: pIC50 values are minus log10 of concentrations stated in mol/L.

Quick note, pIC50 for C=C1C(=O)O[C@@H]2/C=C(/CO)C3=CC(=O)[C@@](C)(C[C@H](OC(=O)/C(C)=C\C)[C@@H]12)O3 landed at 5.66

Quick note, pIC50 for C=C1C(=O)O[C@@H]2/C=C(/C)C3=CC(=O)[C@@](C)(C[C@H](OC(=O)/C(C)=C\C)[C@@H]12)O3 [Compound 7, lychnopholide] landed at 5.59

Quick note, pIC50 for C=C(C)C(=O)O[C@H]1C[C@@]2(C)OC(=CC2=O)/C(CO)=C\[C@H]2OC(=O)C(=C)[C@H]12 [Compound 5, goyazensolide] landed at 5.82

---

Tested on: KMS-12-PE cells
experiment: Metabolic activity, resazurin staining, KMS-12-PE
Assay type: cell-based
experimentalConditions: KMS-12 PE, 100 µM, 72 h, relative to control
endpoint: Metabolic activity, mean percentage ± SE (%)
Give just the number in %; leave the unit off.

Quick note, Metabolic activity, mean percentage ± SE for COc1ccc(-c2cc(=O)c3c(O)cc(O)cc3o2)cc1O landed at 57.2

Quick note, Metabolic activity, mean percentage ± SE for COc1cc(O)c2c(=O)c(OC)c(-c3ccc(O)c(O)c3)oc2c1 landed at 82.4

Quick note, Metabolic activity, mean percentage ± SE for COc1cc(O)c2c(=O)c(OC)c(-c3ccc(OC)c(OC)c3)oc2c1 landed at 95.1

Quick note, Metabolic activity, mean percentage ± SE for COc1cc(O)c2c(=O)c(O)c(-c3cc(O)c(OC)c(OC)c3)oc2c1 landed at 44.5

---

Tested on: AMO-1 cells
experiment: Metabolic activity, resazurin staining, AMO-1
Assay type: cell-based
experimentalConditions: Homo sapiens, AMO1; AMO-1, 72 h, resazurin, 95% confidence interval in brackets; read-out: IC50 inhibition of metabolic activity
Can you tell me IC50 for the items I'm about to list?
Give just the number in µM; leave the unit off.

Quick note, IC50 for C=C1C(=O)O[C@@H]2/C=C(/CO)C3=CC(=O)[C@@](C)(C[C@H](OC(=O)/C(C)=C\C)[C@@H]12)O3 landed at 2.4

Quick note, IC50 for C=C(C)C(=O)O[C@H]1C[C@@]2(C)OC(=CC2=O)/C(CO)=C\[C@H]2OC(=O)C(=C)[C@H]12 [Compound 5, goyazensolide] landed at 2

Quick note, IC50 for C=C1C(=O)O[C@@H]2/C=C(/C)C3=CC(=O)[C@@](C)(C[C@H](OC(=O)/C(C)=C\C)[C@@H]12)O3 [Compound 7, lychnopholide] landed at 3.4
